Biological target: EPHB1 (UniProt P54762)
Sequence (P54762 whole entry, looked up): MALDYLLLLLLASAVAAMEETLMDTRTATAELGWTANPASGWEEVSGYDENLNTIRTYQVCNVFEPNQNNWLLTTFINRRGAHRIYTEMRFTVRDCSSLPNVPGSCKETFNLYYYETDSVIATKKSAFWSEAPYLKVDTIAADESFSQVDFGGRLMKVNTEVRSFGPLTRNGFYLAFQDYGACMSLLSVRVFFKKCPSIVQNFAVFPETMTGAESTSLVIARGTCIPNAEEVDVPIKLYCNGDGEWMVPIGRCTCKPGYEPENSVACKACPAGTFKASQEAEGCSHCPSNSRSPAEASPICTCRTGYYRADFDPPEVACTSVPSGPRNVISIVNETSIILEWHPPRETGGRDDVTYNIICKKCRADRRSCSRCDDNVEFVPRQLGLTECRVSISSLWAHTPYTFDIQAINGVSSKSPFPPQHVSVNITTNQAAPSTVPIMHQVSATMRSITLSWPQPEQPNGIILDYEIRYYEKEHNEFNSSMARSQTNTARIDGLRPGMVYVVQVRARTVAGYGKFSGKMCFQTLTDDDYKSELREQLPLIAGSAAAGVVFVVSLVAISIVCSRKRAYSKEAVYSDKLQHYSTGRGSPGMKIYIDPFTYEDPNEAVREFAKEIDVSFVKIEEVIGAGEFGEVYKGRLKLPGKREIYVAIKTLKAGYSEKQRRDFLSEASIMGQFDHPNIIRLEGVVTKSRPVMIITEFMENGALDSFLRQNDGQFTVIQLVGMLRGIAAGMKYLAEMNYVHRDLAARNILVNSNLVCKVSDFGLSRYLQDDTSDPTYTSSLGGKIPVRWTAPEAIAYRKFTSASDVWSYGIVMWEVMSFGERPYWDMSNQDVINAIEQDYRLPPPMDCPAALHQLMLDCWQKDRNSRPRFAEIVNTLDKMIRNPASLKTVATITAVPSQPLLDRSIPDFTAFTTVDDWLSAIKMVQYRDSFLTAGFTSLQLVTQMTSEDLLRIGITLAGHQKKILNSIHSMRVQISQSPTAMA
Assay: phosphorylation enrichment, bacterial display (enrichment ratio); higher = better substrate or ligand; peptides without Tyr show the background;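 further: 11-residue human phosphosite peptides and single-mutation variants displayed on the E. coli surface, counted by deep sequencing, each peptide's frequency after selection divided by its frequency in the unselected input library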;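 further: frequency after pTyr selection over input frequency; kinase dosed for 20-30% of maximal phosphorylation in three min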
quantity_measured: phosphorylation enrichment
Kindly provide the number alone.

sequence_data	phosphorylation enrichment
FAKTQYPDIYA [CRX_Y63_V66I]	0.355
DSDTDYGSGFP [RNASEH2A_Y206_L202S_YF]	0.545
VAVTKYCKEEL [ATP7B_Y1078]	0.508
VIEFSYTSADG [DHCR7_Y382_C380Y_YF]	0.562
GLAELYEYKKK [CKAP5_Y1854]	0.479

Task item: Can you share its phosphorylation enrichment? I mean this sequence: SRIWVYNHFRC [BRCA2_Y2621_W2626C_YF]
Reply: 0.638

Task item: Can you share its phosphorylation enrichment? I mean this sequence: GLAKEYIDPET [CSNK1G2_Y195]
Reply: 0.527

====

Target: Fes (UniProt P07332)
Sequence (P07332 whole entry, looked up): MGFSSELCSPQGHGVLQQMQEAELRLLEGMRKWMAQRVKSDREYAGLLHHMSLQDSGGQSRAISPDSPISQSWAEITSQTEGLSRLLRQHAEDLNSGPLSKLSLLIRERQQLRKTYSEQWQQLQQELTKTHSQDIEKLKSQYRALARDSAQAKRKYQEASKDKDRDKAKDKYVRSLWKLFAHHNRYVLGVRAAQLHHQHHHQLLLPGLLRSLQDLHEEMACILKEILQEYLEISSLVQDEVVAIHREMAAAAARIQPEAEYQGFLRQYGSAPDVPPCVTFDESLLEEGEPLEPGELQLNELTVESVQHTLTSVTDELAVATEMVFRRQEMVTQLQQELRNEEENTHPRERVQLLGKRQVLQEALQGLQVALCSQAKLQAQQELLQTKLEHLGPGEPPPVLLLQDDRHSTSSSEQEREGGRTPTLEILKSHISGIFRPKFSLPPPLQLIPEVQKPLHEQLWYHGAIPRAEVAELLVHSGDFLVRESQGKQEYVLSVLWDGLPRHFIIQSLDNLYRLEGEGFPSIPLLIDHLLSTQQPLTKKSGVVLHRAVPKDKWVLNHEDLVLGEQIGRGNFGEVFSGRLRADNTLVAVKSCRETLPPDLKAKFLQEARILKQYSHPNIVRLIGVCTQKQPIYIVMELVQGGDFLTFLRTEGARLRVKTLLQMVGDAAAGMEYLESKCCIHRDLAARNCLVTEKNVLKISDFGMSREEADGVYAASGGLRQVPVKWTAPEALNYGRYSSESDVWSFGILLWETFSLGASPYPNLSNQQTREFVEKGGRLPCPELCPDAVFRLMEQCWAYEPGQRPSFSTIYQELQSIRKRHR
Assay: phosphorylation enrichment, bacterial display (enrichment ratio); higher = better substrate or ligand; peptides without Tyr show the background
// label = yes if phosphorylation enrichment is not less than 1, otherwise no

sequence_data	cat
RSSKMYFKTRS [LPL_Y329_L330F]	yes
LGGSPYPSVPV [FGFR1_Y701_G703S]	yes
FEGAIYRKDVG [GART_Y417]	no

Task item: Please check the record GYRPVYSEDEQ [CHST6_Y362] and state if its phosphorylation enrichment is at or above 1.
Reply: yes

Task item: Please check the record IKELTYQMEED [MYH7_Y1852_T1854M] and state if its phosphorylation enrichment is at or above 1.
Reply: yes

Task item: Please check the record LNEVGYDDIGG [VCP_Y203] and state if its phosphorylation enrichment is at or above 1.
Reply: yes

Task item: Please check the record RSDEDYLCREE [POR_Y573_Y575C] and state if its phosphorylation enrichment is at or above 1.
Reply: yes

Task item: Please check the record EKLQQYIAPGM [EPHB3_Y600] and state if its phosphorylation enrichment is at or above 1.
Reply: no

====

Biological target: FGFR1 (UniProt P11362)
Sequence (P11362 whole entry, looked up): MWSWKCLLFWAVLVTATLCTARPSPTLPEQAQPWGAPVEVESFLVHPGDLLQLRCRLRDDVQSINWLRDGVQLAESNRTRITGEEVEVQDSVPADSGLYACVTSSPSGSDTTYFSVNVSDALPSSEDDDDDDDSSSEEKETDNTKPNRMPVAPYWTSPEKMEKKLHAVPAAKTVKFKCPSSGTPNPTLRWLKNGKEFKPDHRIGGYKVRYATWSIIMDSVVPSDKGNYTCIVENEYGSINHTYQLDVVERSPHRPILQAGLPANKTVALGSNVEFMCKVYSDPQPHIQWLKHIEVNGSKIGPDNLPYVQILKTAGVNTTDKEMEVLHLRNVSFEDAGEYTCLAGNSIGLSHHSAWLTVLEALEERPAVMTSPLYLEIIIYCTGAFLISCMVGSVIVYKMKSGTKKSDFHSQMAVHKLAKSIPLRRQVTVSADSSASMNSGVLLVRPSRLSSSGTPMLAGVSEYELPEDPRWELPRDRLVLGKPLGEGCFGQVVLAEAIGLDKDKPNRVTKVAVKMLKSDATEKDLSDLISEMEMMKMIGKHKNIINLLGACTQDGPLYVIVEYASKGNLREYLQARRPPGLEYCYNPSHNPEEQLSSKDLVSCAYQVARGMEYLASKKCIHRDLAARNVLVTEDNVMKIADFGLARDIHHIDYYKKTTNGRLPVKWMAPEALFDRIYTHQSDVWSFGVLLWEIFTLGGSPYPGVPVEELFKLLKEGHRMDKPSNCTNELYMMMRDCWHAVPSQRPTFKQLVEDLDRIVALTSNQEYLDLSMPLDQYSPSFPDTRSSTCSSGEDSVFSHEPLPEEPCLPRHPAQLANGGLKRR
Experiment: phosphorylation enrichment, bacterial display (enrichment ratio); higher = better substrate or ligand; peptides without Tyr show the background
Recorded phosphorylation enrichment for the following sequences

Task item: Give recorded phosphorylation enrichment with FGFR1 (UniProt P11362) for the following sequence: RSACTYLAPHL [PLK3_Y615_S618P]
Reply: 0.691

====

Recorded phosphorylation enrichment for the following sequences
Biological target: MERTK (UniProt Q12866)
Sequence (Q12866 whole entry, looked up): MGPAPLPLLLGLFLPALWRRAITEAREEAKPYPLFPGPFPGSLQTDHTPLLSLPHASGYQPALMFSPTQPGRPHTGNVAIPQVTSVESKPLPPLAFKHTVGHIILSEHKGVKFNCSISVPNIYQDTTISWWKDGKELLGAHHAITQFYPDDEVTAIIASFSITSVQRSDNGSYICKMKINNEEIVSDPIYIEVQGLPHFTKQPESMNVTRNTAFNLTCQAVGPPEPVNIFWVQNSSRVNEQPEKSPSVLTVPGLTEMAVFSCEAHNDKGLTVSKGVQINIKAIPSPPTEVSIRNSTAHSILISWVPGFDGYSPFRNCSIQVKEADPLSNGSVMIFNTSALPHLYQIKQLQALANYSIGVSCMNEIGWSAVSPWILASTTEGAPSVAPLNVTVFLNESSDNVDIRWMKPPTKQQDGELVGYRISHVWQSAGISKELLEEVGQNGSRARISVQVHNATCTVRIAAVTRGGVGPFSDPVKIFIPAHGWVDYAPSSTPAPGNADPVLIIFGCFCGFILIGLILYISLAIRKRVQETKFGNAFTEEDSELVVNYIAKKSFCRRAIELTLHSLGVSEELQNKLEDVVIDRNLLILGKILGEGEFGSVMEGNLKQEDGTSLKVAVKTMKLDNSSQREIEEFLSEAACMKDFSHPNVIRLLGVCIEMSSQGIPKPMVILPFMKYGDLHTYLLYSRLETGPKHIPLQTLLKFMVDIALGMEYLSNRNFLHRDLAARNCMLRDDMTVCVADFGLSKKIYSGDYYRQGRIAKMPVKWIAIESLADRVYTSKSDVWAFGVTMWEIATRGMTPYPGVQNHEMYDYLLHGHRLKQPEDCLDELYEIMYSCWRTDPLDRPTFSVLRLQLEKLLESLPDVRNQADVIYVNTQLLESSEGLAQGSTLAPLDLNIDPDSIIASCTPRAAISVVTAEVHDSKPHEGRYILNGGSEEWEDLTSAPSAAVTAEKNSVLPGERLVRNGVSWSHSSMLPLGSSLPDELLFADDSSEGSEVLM
Assay: phosphorylation enrichment, bacterial display (enrichment ratio); higher = better substrate or ligand; peptides without Tyr show the background
Kindly provide the number alone.

Examples from the recorded data:
sequence_data	tgt	observed_result
VAVTKYCKEEL [ATP7B_Y1078]	MERTK (UniProt Q12866)	0.37
PLQNTYNFNVL [SLC4A1_Y553_K551N_YF]	MERTK (UniProt Q12866)	0.634
KPFRVYCDMNT [FGB_Y269_YF]	MERTK (UniProt Q12866)	0.409
KAESWYQTKFE [KRT75_Y342_E337K_YF]	MERTK (UniProt Q12866)	0.6
VECRVYAEDPY [PCCA_Y401]	MERTK (UniProt Q12866)	0.56
FGLTLYPNSRE [MEP1A_Y472_V469L]	MERTK (UniProt Q12866)	0.385

Task item: Can you share its phosphorylation enrichment? I mean this sequence: YSKDNYKRVTG [PANK2_Y405]
Reply: 0.488

Task item: Can you share its phosphorylation enrichment? I mean this sequence: MSRNLYSGDYY [DDR2_Y736]
Reply: 9.32

Task item: Can you share its phosphorylation enrichment? I mean this sequence: AWVARYIFKRL [LPCAT3_Y348]
Reply: 0.424

Task item: Can you share its phosphorylation enrichment? I mean this sequence: NPQKSYFIRLF [WAS_Y83_YF]
Reply: 0.457
